# System: Plasmodium falciparum
# protocol: ST_JUDE: Plasmodium falciparum K1 EC50 (uM) as measured by SYBR green dye
# Format: functional, organism-based
parameter: log10 of EC50 (log10 of the value in µM)
Remember, log10 of EC50, in µM.

{"columns": ["compound", "target-or-test-system", "log10 of EC50"],
 "data": [
  ["CCOc1ccc(Nc2cc(C)nc(-n3nc(C)cc3C)n2)cc1", "Plasmodium falciparum", 0.70],
  ["CN(C)S(=O)(=O)c1ccc(C(=O)NNc2nc3ccc(F)cc3s2)cc1", "Plasmodium falciparum", 0.63],
  ["CC(C)(C)c1ccc(C(=O)Nc2c3c(nn2-c2ccc([N+](=O)[O-])cc2)CS(=O)(=O)C3)cc1", "Plasmodium falciparum", 0.49],
  ["CCOC(=O)c1ccc(NC2=C(n3nnc4ccccc43)C(=O)c3ccccc3C2=O)cc1", "Plasmodium falciparum", -0.17]
]}

Give log10 of EC50 for each of the items listed below.
1. CCCC(=O)NC(c1ccc(OC)cc1)c1ccc2cccnc2c1O (stereo unspecified)
2. Oc1c(C(Nc2ccccn2)c2ccc(Cl)c(Cl)c2)ccc2cccnc12 (stereo unspecified)
3. CCOc1cc2c(cc1OCC)C(c1cc(Cl)ccc1O)NCC2 (stereo unspecified)

1: 0.42; 2: 0.64; 3: -0.61

Give log10 of EC50 for each of the items listed below.
1. CCCN1CCN(CCCNC(=O)c2ccc3c(c2)sc2nc(-c4cccc(OC)c4)cn23)CC1
2. CC1=NC2=C(C(=O)CC(c3ccc(Cl)cc3)C2)C(c2ccc(F)cc2)/C1=C(\O)OC(C)C (stereo unspecified)
3. CCc1ccc(S(=O)(=O)NC2=C/C(=N\c3ccccc3OC)C(=O)c3ccccc32)cc1
4. CCCCC(O)(c1ccc(CC)cc1)C(CN1CCOCC1)c1ccccc1 (stereo unspecified)
5. CCOc1cc2c(cc1OCC)C(c1cc(Cl)c(O)c(OCC)c1)NCC2 (stereo unspecified)
6. O=C(Cc1ccccc1)NC(c1ccc([N+](=O)[O-])cc1)c1c(O)ccc2ccccc12 (stereo unspecified)

0.50
-0.11
-0.83
0.54
0.25
0.76

Give log10 of EC50 for each of the items listed below.
1. COC(=O)C1=CNC=C(C(=O)OC)C1c1ccc(Cl)c([N+](=O)[O-])c1
2. CCCCCCOC(=O)c1[nH]c2c(c1C)C(=O)CC(c1ccco1)C2 (stereo unspecified)
3. O=[N+]([O-])c1cccc(-c2cn(-c3ccccc3)c3[n+]2CCCS3)c1
4. CCC(C)c1ccc(O)c(NC(=O)c2cncc(Br)c2)c1 (stereo unspecified)

-0.13
0.31
0.59
0.20

###

Assignment: determine reported pEC50 for the given molecules.
# Tested on: Plasmodium falciparum
# protocol: ST_JUDE: Plasmodium falciparum 3D7 EC50 (uM) as measured by SYBR green dye
# Format: functional, organism-based
Numbers only, as −log10 of the molar value.

{"columns": ["molecule", "pEC50"],
 "data": [
  ["Cc1ccc(N2C(=O)CS(=O)(=O)C23C(=O)N(Cc2ccccc2Cl)c2ccccc23)cc1C (stereo not given)", 5.88]
]}

Would you kindly look at the next entry?
Quick note, pEC50 for COc1ccccc1/N=C1\C=C(NS(=O)(=O)c2ccc(C(C)C)cc2)c2ccccc2C1=O landed at 6.22

###

# System: Plasmodium falciparum
# protocol: ST_JUDE: Plasmodium falciparum 3D7 EC50 (uM) as measured by SYBR green dye
# Format: functional, organism-based
parameter: EC50 (nM)
One number for each entry, in nM.

# example entries with known answers
{"columns": ["smiles", "EC50 [nM]"],
 "data": [
  ["CCOc1ccc(NC2=C/C(=N/S(=O)(=O)c3ccc(OC)cc3)c3ccccc3C2=O)cc1", 352],
  ["CCCN(CCC)CCCNC(=O)c1cc2c(-c3ccc(OC)c(OC)c3)nn(C)c2s1", 4040],
  ["Cc1cc(C)c2sc(N(Cc3cccnc3)C(=O)c3ccc(C#N)cc3)nc2c1", 5770],
  ["Oc1ccc(Cl)cc1CN1CCN(Cc2ccccc2)CC1", 1020]
]}

Give EC50 for each of the items listed below.
1. COC(=O)c1c(N)n(-c2ccc(F)cc2F)c2nc3ccccc3nc12
2. CCCCOC(=O)c1ccc(Nc2cc(C)nc3ccccc23)cc1
3. CCOC(=O)c1c(CSC(=N)N)n(-c2ccccc2)c2cc(Br)c(OC(C)=O)cc12
4. CCOC(=O)C1(Cc2cccc(C(F)(F)F)c2)CCN(Cc2ccccc2O)CC1

1: 853; 2: 3400; 3: 749; 4: 389

###

# System: Plasmodium falciparum
# protocol: ST_JUDE: Plasmodium falciparum 3D7 EC50 (uM) as measured by SYBR green dye
# Format: functional, organism-based
Assignment: determine reported EC50 for the given molecules.
Numbers only, in µM.

# example entries with known answers
{"columns": ["molecule", "observed-measurement"],
 "data": [
  ["COc1ccc(OC)c2sc(N(Cc3cccnc3)C(=O)c3cccc(F)c3)nc12", 4.1],
  ["Cc1ccc(-c2nc3ccccc3o2)cc1NC(=O)C(Cl)(Cl)Cl", 4.07],
  ["CCCN1CCN(CCCNC(=S)Nc2ccc3nc(N4CCN(C)CC4)cc(C)c3c2)CC1", 5.43]
]}

Give EC50 for each of the items listed below.
1. O=C(Nc1ccccc1O)c1ccc(-c2ccc(Cl)cc2Cl)o1
2. COc1ccc(C2C(C#N)=C(C(C)(C)C)Nc3ncnn32)cc1 (centres undefined)
3. CCc1ccc(NC(=O)C2c3cc(OC)c(OC)cc3C(=O)N(C)C2c2cccs2)cc1 (centres undefined)

1. 2.46
2. 8.08
3. 3.54

###

# System: Plasmodium falciparum
# protocol: ST_JUDE: Cytotoxicity against Plasmodium falciparum W2
# Type: functional, organism-based
Assignment: determine reported EC50 for the given molecules.
One number for each entry, in nM.

{"columns": ["smiles", "quantity-unit", "EC50"],
 "data": [
  ["CC(C)(C)c1ccc(S(=O)(=O)NC2=C/C(=N\\c3ccc(O)cc3)C(=O)c3ccccc32)cc1", "nM", 385],
  ["CC[n+]1c(/C=C/c2ccc(N(C)C)cc2)ccc2cc(OC)ccc21", "nM", 92.2]
]}

Quick note, EC50 for C/C=C/c1n(C)c2ccccc2[n+]1C landed at 1900

###

Assignment: determine reported EC50 for the given compounds.
# Tested on: Plasmodium falciparum
# protocol: ST_JUDE: Plasmodium falciparum K1 EC50 (uM) as measured by SYBR green dye
# Format: functional, organism-based

{"columns": ["compound", "EC50"],
 "data": [
  ["CCC(C)c1ccc(NC(=O)c2cc(Br)ccc2OC)c(O)c1 (stereo unspecified)", "2.11 µM"],
  ["CC(Cc1ccccc1)NCCCCCCCCCNC(C)Cc1ccccc1 (stereo unspecified)", "1.17 µM"],
  ["CCN(CC)c1ccc(CNC(C)C(O)c2ccccc2)cc1 (stereo unspecified)", "0.98 µM"],
  ["O=C(COc1ccccc1)NC(c1ccc(Cl)cc1)c1cc(Cl)c2cccnc2c1O (stereo unspecified)", "1.68 µM"],
  ["Cc1ccc(CN2c3ccccc3C(O)=C(/C=N/c3ccc4c(c3)N3CCN=C3S4)S2(=O)=O)cc1", "> 15 µM"],
  ["O=C(NCC1Cc2cccc(-c3ccncc3)c2O1)c1csc2c1CCCC2 (stereo unspecified)", "> 15 µM"],
  ["CCOc1ccc(NC(=O)C2c3ccccc3C(=O)N(CC(C)C)C2c2cccs2)cc1 (stereo unspecified)", "0.147 µM"],
  ["Cc1ccccc1Nc1nc(NCc2ccco2)c2ccccc2n1", "> 15 µM"]
]}

Give EC50 for each of the items listed below.
1. CCC1(C)CC(CCNCc2ccc(F)cc2)(c2ccc(F)cc2)CCO1 (stereo unspecified)
2. Cc1ccc(C(=O)Nc2ccc3c(c2)N(S(=O)(=O)c2ccc(F)cc2)CCC3)cc1
3. CCCOC(=O)c1ccc(NC(=O)NC2CCCCC2)cc1
4. CCN1CCN(c2cc(C)c3cc(NC(=O)/C=C/c4ccccc4OC(C)C)ccc3n2)CC1
5. CCN(CC)c1cc(C)c2cc(NC(=O)c3ccc(Cl)c([N+](=O)[O-])c3)ccc2n1
6. COc1ccc(S(=O)(=O)Nc2ccc(Nc3nc(C)cc(Nc4ccc(C)cc4)n3)cc2)cc1

1. 0.518 µM
2. > 15 µM
3. > 15 µM
4. 2.98 µM
5. > 15 µM
6. 7.51 µM

Give EC50 for each of the items listed below.
1. C=CCn1c(C)c(C=C2C(=O)NC(=S)NC2=O)c2ccccc21
2. CCOC(=O)C1=CN(Cc2ccc(F)cc2)C=C(C(=O)OCC)C1c1cc(OC)c(OC)c(OC)c1

1: 1.4 µM; 2: 0.521 µM

Give EC50 for each of the items listed below.
1. Cc1ccc(Nc2nc(N/N=C/c3ccc(/C=N/Nc4nc(Nc5ccc(C)cc5)nc(N5CCOCC5)n4)cc3)nc(N3CCOCC3)n2)cc1
2. COc1ccc(Nc2nc(NCc3ccccc3)c3ccccc3n2)cc1
3. CN1C=CC(=Cc2sc3ccccc3[n+]2C)C=C1
4. CO/C(O)=C1\C(C)=NC2=C(C(=O)CC(c3ccc(OC)c(OC)c3)C2)C1c1ccc(F)cc1 (stereo unspecified)
5. CC(C)NCC(O)Cn1c2ccc(Cl)cc2c2cc(Cl)ccc21 (stereo unspecified)

1: 1.43 µM; 2: 7.39 µM; 3: 0.389 µM; 4: 0.108 µM; 5: 0.14 µM
